system-name: PI3Kγ (Mus musculus, UniProt Q9JHG7)
Construct: endogenous in cells
Sequence (Q9JHG7 whole entry): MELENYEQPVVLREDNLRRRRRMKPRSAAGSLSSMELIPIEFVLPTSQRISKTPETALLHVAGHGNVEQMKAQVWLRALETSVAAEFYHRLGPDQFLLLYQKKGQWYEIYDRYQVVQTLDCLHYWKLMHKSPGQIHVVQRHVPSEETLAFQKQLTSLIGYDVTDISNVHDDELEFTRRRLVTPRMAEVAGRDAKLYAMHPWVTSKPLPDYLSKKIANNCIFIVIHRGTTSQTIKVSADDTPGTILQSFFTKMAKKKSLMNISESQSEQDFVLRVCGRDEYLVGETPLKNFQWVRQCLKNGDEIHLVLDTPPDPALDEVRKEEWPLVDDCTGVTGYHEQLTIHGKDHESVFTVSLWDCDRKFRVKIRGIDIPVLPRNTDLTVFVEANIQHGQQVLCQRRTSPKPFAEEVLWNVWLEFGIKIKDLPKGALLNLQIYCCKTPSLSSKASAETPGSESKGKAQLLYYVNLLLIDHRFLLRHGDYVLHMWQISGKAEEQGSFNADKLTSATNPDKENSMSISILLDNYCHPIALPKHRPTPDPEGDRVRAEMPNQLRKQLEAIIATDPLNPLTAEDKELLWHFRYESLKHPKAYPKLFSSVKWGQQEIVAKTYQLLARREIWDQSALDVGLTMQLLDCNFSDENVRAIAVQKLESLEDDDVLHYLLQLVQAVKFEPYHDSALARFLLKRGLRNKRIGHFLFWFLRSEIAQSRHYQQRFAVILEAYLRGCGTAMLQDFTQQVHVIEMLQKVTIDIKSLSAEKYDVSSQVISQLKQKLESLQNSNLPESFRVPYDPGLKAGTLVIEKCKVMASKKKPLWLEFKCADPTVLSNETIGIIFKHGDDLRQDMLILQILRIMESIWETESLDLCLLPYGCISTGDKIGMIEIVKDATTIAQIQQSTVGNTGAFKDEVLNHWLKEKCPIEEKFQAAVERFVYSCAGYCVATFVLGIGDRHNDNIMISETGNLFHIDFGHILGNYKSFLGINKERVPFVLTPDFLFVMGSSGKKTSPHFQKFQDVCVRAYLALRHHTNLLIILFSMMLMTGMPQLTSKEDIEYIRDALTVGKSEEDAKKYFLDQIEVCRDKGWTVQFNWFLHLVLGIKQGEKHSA
measurement-protocol: Acumen Assay - Raw264.7 p-AKT Assay (C5a stimulated)
protocol-conditions: Raw264.7 macrophage cells, compound 30 min, 10 nM C5a 5 min, p-AKT (Ser473) readout; read-out: PI3Kγ cell-C5a Raw264.7 IC50
Protocol: Acumen® eX3 (A Mμltilaser Microplate Cytometer For Enhanced High Content Screening): TTP LabTech 3×10^4 Raw264.7 macrophage cells were seeded into 96-well plates with DMEM+10% heat-inactivated FBS at […], 90 ul/well, overnight. After starvation for 3 hr at 37° C. under 5% CO2, Raw264.7 cells were treated with 10 ul/well various concentrations of compound or 0.5% DMSO for 30 min, and then stimulated with 10 ul/well 10 nM C5a for 5 min. […]
Classify: y when IC50 is strictly less than 60 nM; n when IC50 is not.

Decide: IC50 of CC(Nc1nc(N)nc2c1C(=O)CCN2)c1cn2ccc(F)c2c(=O)n1-c1ccccc1 (single isomer, unassigned) strictly below 60 nM?
n

Is 60 nM strictly greater than the molecule's reported IC50? molecule: `N#Cc1c[nH]c2ncnc(N3C[C@@H](F)C[C@H]3c3nn4ccc(Cl)c4c(=O)n3-c3cccc(F)c3)c12`
y

I'd appreciate it if you could check whether `CC(=O)c1cnc(N)nc1N1CC[C@H]1c1nn2ccc(Cl)c2c(=O)n1-c1ccc(F)cc1` has IC50 smaller than 60 nM.
y

Hello, is IC50 of the following molecule strictly smaller than 60 nM? `N#Cc1cnc(N)nc1N1C[C@@H](F)C[C@H]1c1nn2ccc(Cl)c2c(=O)n1-c1ccccc1`
y

Given `Nc1ncc(C(=O)C(F)(F)F)c(N2CC[C@H]2c2nn3ccc(Cl)c3c(=O)n2-c2ccccc2)n1` , is recorded IC50 strictly lower than 60 nM?
n

# check: IC50 < 60 nM for `CC(=O)c1c[nH]c2ncnc(N3CCC[C@H]3c3nn4ccc(Cl)c4c(=O)n3-c3ccccn3)c12`
y

Please state whether IC50 is below 60 nM for CC(Nc1ncnc2[nH]cc(F)c12)c1cn2ccc(Cl)c2c(=O)n1-c1ccccc1 (stereo not shown)
n

###

system-name: PI3Kγ (Mus musculus)
Construct: endogenous in cells
measurement-protocol: Acumen Assay - Raw264.7 p-AKT Assay (C5a stimulated)
protocol-conditions: Raw264.7 macrophage cells, compound 30 min, 10 nM C5a 5 min, p-AKT (Ser473) readout; read-out: PI3Kγ cell-C5a Raw264.7 IC50
Description: Acumen® eX3 (A Mμltilaser Microplate Cytometer For Enhanced High Content Screening): TTP LabTech 3×10^4 Raw264.7 macrophage cells were seeded into 96-well plates with DMEM+10% heat-inactivated FBS at […], 90 ul/well, overnight. After starvation for 3 hr at 37° C. under 5% CO2, Raw264.7 cells were treated with 10 ul/well various concentrations of compound or 0.5% DMSO for 30 min, and then stimulated with 10 ul/well 10 nM C5a for 5 min. […]
Consider the following compounds; for each one, report its IC50.
Could you give the number and then its unit, please?

Which IC50 is listed for `Cc1nc(N)nc(N2CC[C@H]2c2nn3ccc(Cl)c3c(=O)n2-c2ccccc2)c1C#N` ?
3 nM

Recorded IC50 for `CC(=O)c1c[nH]c2ncnc(N3C[C@@H](F)C[C@H]3c3nn4ccc(Cl)c4c(=O)n3-c3ccccc3)c12` , please?
19 nM

# get_value(readout='IC50', item= `CC(=O)c1cnc(N)nc1N1CC[C@H]1c1nn2ccc(Cl)c2c(=O)n1-c1ccccc1` )
6 nM

Request the reported IC50 associated with `N#Cc1cnc(N)nc1N1C[C@@H](C#N)C[C@H]1c1nn2ccc(Cl)c2c(=O)n1-c1ccccc1`
5 nM

For C[C@H]1CCN(c2nc(N)ncc2C#N)C1c1nn2ccc(Cl)c2c(=O)n1-c1ccccc1 (some centres unmarked) , what is its reported IC50?
46 nM

Using the record for `CC(=O)c1cnc(N)nc1N1C[C@H](C)[C@H]1c1nn2ccc(F)c2c(=O)n1-c1ccccc1` , report its IC50.
63 nM

Give its IC50 value. Item: `CC(=O)c1cnc(N)nc1N1CCC[C@H]1c1nn2ccc(Cl)c2c(=O)n1-c1ccccc1`
22 nM

For the compound shown here, CC(=O)c1cnc(N)nc1N1CCCC1c1cn2ccc(Cl)c2c(=O)n1-c1ccccc1 (centres unmarked) , give the reported IC50.
9 nM

Any idea what its IC50 is? The compound is `O=c1c2cccn2nc([C@@H]2CCCN2c2ncnc3[nH]cnc23)n1-c1ccccc1`
3940 nM

# lookup: IC50 of `Nc1nc2c(c(N3CC[C@H]3c3nn4ccc(Cl)c4c(=O)n3-c3ccccc3)n1)C(=O)CCN2`
22 nM

Could you tell me which IC50 is on file for `CC(=O)c1c[nH]c2ncnc(N3CCC[C@H]3c3nn4ccc(F)c4c(=O)n3-c3ccccc3)c12` ?
42 nM

Name the recorded IC50 for `O=c1c2c(Cl)ccn2nc([C@@H]2CCCN2c2ncnc3[nH]cnc23)n1-c1ccccn1` .
54 nM

What value of measured IC50 is listed for N#Cc1c[nH]c2ncnc(N3CCCC3c3cn4ccc(Cl)c4c(=O)n3-c3ccccc3)c12 (centres unmarked) ?
6 nM

Which IC50 is reported for this compound? `N#Cc1cnc(N)nc1N1CCC[C@H]1c1nn2ccc(Cl)c2c(=O)n1-c1ccc(F)cc1`
15 nM

Consider the compound shown here: CC(Nc1ncnc2[nH]cc(F)c12)c1cc2ncc(Cl)n2c(=O)n1-c1ccccc1 (centres unmarked) [Compound 285] What is its recorded IC50?
46 nM

Recorded IC50 for `CC(=O)c1cnc(N)nc1N1CC[C@H]1c1nn2ccc(F)c2c(=O)n1-c1ccccc1` , please?
80 nM

# input compound: `CC(=O)c1cnc(N)nc1N1C[C@H](C)[C@H]1c1nn2ccc(Cl)c2c(=O)n1-c1ccc(F)cc1` ; wanted: its IC50
5 nM

Requested read-out: IC50. Entry: CC(=O)c1cnc(N)nc1NC(C)c1cc2ncc(Cl)n2c(=O)n1-c1ccccc1 (centres unmarked)
43 nM

If you can, please state the reported IC50 value of CC(Nc1ncnc2[nH]cc(F)c12)c1cc2ncc(Cl)n2c(=O)n1-c1ccccc1 (single isomer, unassigned) [Compound 450] .
72 nM

Quick check: IC50 of `N#Cc1cnc(N)nc1N1CCC[C@H]1c1nn2ccc(Cl)c2c(=O)n1-c1ccccc1` ?
22 nM

Field request: IC50 | item: `O=c1c2c(F)ccn2nc([C@@H]2CCCN2c2ncnc3[nH]cnc23)n1-c1cccc(F)c1`
54 nM

Given the entry `Nc1nc2c(c(N3CCC[C@H]3c3nn4ccc(Cl)c4c(=O)n3-c3ccccc3)n1)C(=O)CCN2` , report its measured IC50.
21 nM

May I ask what IC50 has been recorded for `N#Cc1c[nH]c2ncnc(N3CC(=O)C[C@H]3c3nn4ccc(Cl)c4c(=O)n3-c3ccccc3)c12` ?
19 nM

Quick check: IC50 of CC(=O)c1cnc(N)nc1NC(C)c1cn2ccc(Cl)c2c(=O)n1-c1ccccc1 (centres unmarked) ?
3 nM

Could you share which IC50 value was measured for `N#Cc1cnc(N)nc1N1CC(=O)C[C@H]1c1nn2ccc(Cl)c2c(=O)n1-c1ccccc1` ?
11 nM

Find the recorded IC50 belonging to `O=c1c2c(Cl)ccn2nc([C@@H]2C[C@H](F)CN2c2ncnc3[nH]cnc23)n1-c1cccc(F)c1` and report it.
15 nM

Using the record for CC(=O)c1c[nH]c2ncnc(NC(C)c3cn4ccc(Cl)c4c(=O)n3-c3ccccc3)c12 (centres unmarked) , report its IC50.
36 nM

Any idea what its IC50 is? The compound is CC(Nc1nc(N)ncc1C#N)c1cn2ccc(F)c2c(=O)n1-c1ccccc1 (single isomer, unassigned)
87 nM

Which IC50 is listed for `N#Cc1cnc(N)nc1N1CCC[C@H]1c1nn2ccc(Cl)c2c(=O)n1-c1cccc(F)c1` ?
44 nM

These data points were gathered from patent US20150291593A1.
